The measurements presented in this section are drawn from the supplement of paper PMC12669032.

Let's look at some molecules and their measured growth AUC.
system: Coprococcus comes; assay: growth AUC relative to DMSO control (median of replicates) (fraction); higher = more growth (less inhibition), active = hit call of the paper; settings: 20 µM; 24 h
Please reply with the value in numeric form only.

Some molecules with recorded growth AUC:
# MOLECULE, SYSTEM, growth AUC
measured = [
    ("CCS(=O)(=O)c1nc2ccccn2c1S(=O)(=O)NC(=O)Nc1nc(OC)cc(OC)n1", "Coprococcus comes", 1.04),
    ("Cc1c(COC(=O)[C@@H]2[C@H](/C=C(\\Cl)C(F)(F)F)C2(C)C)cccc1-c1ccccc1", "Coprococcus comes", 1.03),
    ("CCOP(=S)(OCC)Oc1ccc(=O)n(-c2ccccc2)n1", "Coprococcus comes", 0.973),
    ("Oc1cc(Cl)cc(Cl)c1", "Coprococcus comes", 1.02),
    ("CN(C)C(CSS(=O)(=O)[O-])CSS(=O)(=O)[O-].[Na+].[Na+]", "Coprococcus comes", 0.999),
    ("CCOP(=O)(NC(C)C)Oc1ccc(SC)c(C)c1 (stereo not given)", "Coprococcus comes", 0.974),
    ("CNC(=O)Oc1cc(C)c(N(C)C)c(C)c1", "Coprococcus comes", 1.01),
    ("OC[C@@H](O)[C@H]1O[C@@H]2O[C@H](C(Cl)(Cl)Cl)O[C@@H]2[C@H]1O (mixture of isomers)", "Coprococcus comes", 0.988),
]

Prompt: Please report growth AUC for the following molecule: COC(=O)C1(O)c2ccccc2-c2ccccc21
Response: 0.939

Prompt: Please report growth AUC for the following molecule: CC(C)OC(=O)C(C(=O)OC(C)C)=C1SCCS1
Response: 1.06

###

Let's look at some molecules and their measured growth AUC.
tested on: Parabacteroides merdae; test: growth AUC relative to DMSO control (median of replicates) (fraction); higher = more growth (less inhibition), active = hit call of the paper; settings: 20 µM; 24 h
Please reply with the value in numeric form only.

Prompt: Report measured growth AUC on Parabacteroides merdae; entry: CCOc1nc(NC)nc(NC(=O)NS(=O)(=O)c2ccccc2C(=O)OC)n1
Response: 1.03

Prompt: Report measured growth AUC on Parabacteroides merdae; entry: Clc1ccc(Cl)c(Cl)c1
Response: 1.02

Prompt: Report measured growth AUC on Parabacteroides merdae; entry: CP(=O)(O)CC(=O)O
Response: 0.982

###

Let's look at some compounds and their measured growth AUC.
tested on: Bacteroides clarus; assay: growth AUC relative to DMSO control (median of replicates) (fraction); higher = more growth (less inhibition), active = hit call of the paper; settings: 20 µM; 24 h
Please reply with the value in numeric form only.

Some compounds with recorded growth AUC:
# COMPOUND, growth AUC
data = [
    ("O=[N+]([O-])c1ccc(O)c([N+](=O)[O-])c1", 0.939),
    ("CCCOCCN(C(=O)CCl)c1c(CC)cccc1CC", 0.981),
    ("CCOP(=O)(OCC)ON1C(=O)c2cccc3cccc(c23)C1=O", 0.898),
    ("O=S(=O)(c1ccc(Cl)cc1)c1cc(Cl)c(Cl)cc1Cl", 0.935),
    ("O=C(Nc1ccc(F)cc1F)c1cccnc1Oc1cccc(C(F)(F)F)c1", 0.965),
    ("CCC1(C(=O)NC(C)c2ccc(Cl)cc2)C(C)C1(Cl)Cl (stereo unspecified)", 0.985),
    ("C[N+]1(C)CCCCC1.[Cl-]", 1.03),
    ("CCO/N=C(\\CC)C1=C(O)CC(c2c(C)cc(C)cc2C)CC1=O (stereo unspecified)", 1),
]

Prompt: Please report growth AUC for the following compound: COP(N)(=O)SC (stereo unspecified)
Response: 1.04

Prompt: Please report growth AUC for the following compound: Clc1nc(Cl)nc(Nc2ccccc2Cl)n1
Response: 0.962

Prompt: Please report growth AUC for the following compound: COC(=O)C(C)N(C(=O)Cc1ccccc1)c1c(C)cccc1C (stereo unspecified)
Response: 0.957

Prompt: Please report growth AUC for the following compound: COc1cnc(OC)n2nc(NS(=O)(=O)c3c(OCC(F)F)cccc3C(F)(F)F)nc12
Response: 1.01

Prompt: Please report growth AUC for the following compound: Nc1cnn(-c2ccccc2)c(=O)c1Cl
Response: 0.992

Prompt: Please report growth AUC for the following compound: CCC(C)(c1ccc(O)cc1)c1ccc(O)cc1
Response: 0.925

Prompt: Please report growth AUC for the following compound: CC(=O)O.CCCCCCCCCCCCN=C(N)N
Response: 0.988

Prompt: Please report growth AUC for the following compound: CCNc1nc(Cl)nc(NC(C)(C)C#N)n1
Response: 0.983

Prompt: Please report growth AUC for the following compound: O=c1oc2ccccc2c(O)c1C(CC(O)c1ccc(-c2ccc(Br)cc2)cc1)c1ccccc1 (stereo unspecified)
Response: 0.279

Prompt: Please report growth AUC for the following compound: c1ccc2c(c1)cc1ccc3cccc4ccc2c1c34
Response: 0.94

Prompt: Please report growth AUC for the following compound: O=C(NC(=O)c1c(F)cccc1F)Nc1ccc(Cl)cc1
Response: 0.996

Prompt: Please report growth AUC for the following compound: CCOP(=S)(OCC)Oc1nc(Cl)n(C(C)C)n1
Response: 1.02

Prompt: Please report growth AUC for the following compound: CCCN(CCC)c1c([N+](=O)[O-])cc(S(N)(=O)=O)cc1[N+](=O)[O-]
Response: 0.896

Prompt: Please report growth AUC for the following compound: CCCN(CCC)c1c([N+](=O)[O-])cc(S(C)(=O)=O)cc1[N+](=O)[O-]
Response: 0.963

###

test system: Bacteroides dorei; assay: growth AUC relative to DMSO control (median of replicates) (fraction); higher = more growth (less inhibition), active = hit call of the paper; details: 20 µM; 24 h
REPORTED_ENDPOINT: growth AUC
Please reply with the value in numeric form only.

Some compounds with recorded growth AUC:
# COMPOUND, SYSTEM, growth AUC
data = [
    ("CC(C)=CC1C(C(=O)OCc2coc(Cc3ccccc3)c2)C1(C)C (configuration not stated)", "Bacteroides dorei", 1),
    ("CNC(=O)O/N=C(\\C)C(C)S(C)(=O)=O (configuration not stated)", "Bacteroides dorei", 0.969),
    ("CC(C)(C)C(O)C(Oc1ccc(-c2ccccc2)cc1)n1cncn1 (mixture of isomers)", "Bacteroides dorei", 0.926),
    ("CCOc1cc(C(C)(C)C)ccc1C1COC(c2c(F)cccc2F)=N1 (configuration not stated)", "Bacteroides dorei", 1.03),
    ("CCNc1nc(NC(C)C)nc(OC)n1", "Bacteroides dorei", 0.941),
    ("OC(Cc1ccccc1Cl)(Cn1[nH]cnc1=S)C1(Cl)CC1 (configuration not stated)", "Bacteroides dorei", 0.91),
    ("ClC1=C(Cl)C(Cl)(C2(Cl)C(Cl)=C(Cl)C(Cl)=C2Cl)C(Cl)=C1Cl", "Bacteroides dorei", 0.895),
    ("Oc1ccc(Cc2ccc(O)cc2)cc1", "Bacteroides dorei", 0.998),
]

# ---- query compound ----
Prompt: Report measured growth AUC on Bacteroides dorei; entry: CCOP(=S)(OCC)Oc1cc(C)nc(C(C)C)n1
Response: 1.03

###

tested on: Streptococcus salivarius; assay: growth AUC relative to DMSO control (median of replicates) (fraction); higher = more growth (less inhibition), active = hit call of the paper; conditions: 20 µM; 24 h
Let's look at some compounds and their measured growth AUC.
Please reply with the value in numeric form only.

Prompt: Report measured growth AUC on Streptococcus salivarius; entry: CCSC(C)CC1CC(=O)C(/C(CC)=N/OC/C=C/Cl)=C(O)C1 (mixture of isomers)
Response: 0.919

Prompt: Report measured growth AUC on Streptococcus salivarius; entry: CC(CCl)OP(=O)(OC(C)CCl)OC(C)CCl (mixture of isomers)
Response: 1.01

Prompt: Report measured growth AUC on Streptococcus salivarius; entry: CCCN(CC1CC1)c1c([N+](=O)[O-])cc(C(F)(F)F)cc1[N+](=O)[O-]
Response: 1.03

Prompt: Report measured growth AUC on Streptococcus salivarius; entry: C[C@@H](Oc1ccc(Oc2ccc(C(F)(F)F)cn2)cc1)C(=O)O
Response: 1.05

Prompt: Report measured growth AUC on Streptococcus salivarius; entry: CCOP(=S)(OCC)Oc1cc(-c2ccccc2)on1
Response: 0.995

Prompt: Report measured growth AUC on Streptococcus salivarius; entry: Cc1cc(Cl)ccc1N=CN(C)C.Cl
Response: 0.99

Prompt: Report measured growth AUC on Streptococcus salivarius; entry: OC(c1ccc(Cl)cc1)(c1cncnc1)c1ccccc1Cl (stereo unspecified)
Response: 0.939

Prompt: Report measured growth AUC on Streptococcus salivarius; entry: O=[N+]([O-])C(Br)(CO)CO
Response: 0.967

###

test system: Fusobacterium nucleatum subsp. animalis; experiment: growth AUC relative to DMSO control (median of replicates) (fraction); higher = more growth (less inhibition), active = hit call of the paper; details: 20 µM; 24 h
REPORTED_ENDPOINT: growth AUC
Please reply with the value in numeric form only.

Some compounds with recorded growth AUC:
# COMPOUND, growth AUC
measured = [
    ("Clc1ccccc1Cl", 0.975),
    ("CCCCCCCCCCCCC1=C(OC(C)=O)C(=O)c2ccccc2C1=O", 1.02),
    ("CCS(=O)(=O)Cc1ccccc1OC(=O)NC", 1.03),
    ("CCC/C(=N\\OCC)C1=C(O)CC(CC(C)SCC)CC1=O (stereo unspecified)", 0.867),
    ("CO/N=C(/C1=NOCCO1)c1ccccc1Oc1ncnc(Oc2ccccc2Cl)c1F", 0.978),
    ("CCOP(=S)(OCC)Oc1ccc(S(C)=O)cc1 (stereo unspecified)", 0.998),
    ("CC1(C)C(C=C(Cl)Cl)C1C(=O)OC(C#N)c1ccc(F)c(Oc2ccccc2)c1 (mixture of isomers)", 0.95),
    ("Cc1ccc2nc3sc(=O)sc3nc2c1", 1.04),
]

Prompt: Please report growth AUC for the following compound: CCS(=O)(=O)CCSP(=O)(OC)OC
Response: 0.969

Prompt: Please report growth AUC for the following compound: CCNc1nc(NC(C)(C)C)nc(SC)n1
Response: 1.06

Prompt: Please report growth AUC for the following compound: N#Cc1c[nH]cc1-c1cccc(Cl)c1Cl
Response: 0.797
